biological target: HCA2/GPR109A (Homo sapiens); construct: expressed in transfected cells; host or cells: Flp-In-293; assay: forskolin-stimulated cAMP accumulation assay, Flp-In-293 cells stably expressing HCA2/GPR109A; assay type: cell-based; conditions: HCA2; mean ± SD; read-out: HCA2/GPR109A Emax, maximal inhibition of forskolin-stimulated cAMP (converted)
readout label: Emax (%)
Answers are plain numbers, in %.

Record excerpt, results attached:
• O=C(CSc1nc(=O)c2c(CCCCCl)cc(=O)oc2[nH]1)OCc1ccccc1 = 85
• O=c1cc(CCCCCl)c2c(=O)[nH]c(=S)[nH]c2o1 = 94
• NC(=O)CSc1nc(=O)c2c(CCCCCl)cc(=O)oc2[nH]1 = 87
• CCCCc1cc(=O)oc2[nH]c(=S)[nH]c(=O)c12 = 97
• CCCCc1cc(=O)oc2[nH]c(SCC(=O)OCC)nc(=O)c12 = 93
• CCCc1cc(=O)oc2[nH]c(=S)[nH]c(=O)c12 = 86
• CCCCc1cc(=O)oc2[nH]c(=O)[nH]c(=O)c12 = 93
• CCOC(=O)CSc1nc(=O)c2c(CCCCCl)cc(=O)oc2[nH]1 = 89
• Cc1cc(=O)oc2[nH]c(=S)[nH]c(=O)c12 = 96

Problem: If you can, please state the reported Emax value of `O=c1[nH]c(=O)c2c(CCCCCl)cc(=O)oc2[nH]1` .
Result: 98

====

molecular target: HCA2/GPR109A (Homo sapiens, UniProt Q8TDS4); construct: expressed in transfected cells; host or cells: Flp-In-293; assay: forskolin-stimulated cAMP accumulation assay, Flp-In-293 cells stably expressing HCA2/GPR109A; format: cell-based; conditions: inhibition of forskolin-stimulated cAMP; mean ± SD; read-out: HCA2/GPR109A EC50
Sequence (Q8TDS4 whole entry): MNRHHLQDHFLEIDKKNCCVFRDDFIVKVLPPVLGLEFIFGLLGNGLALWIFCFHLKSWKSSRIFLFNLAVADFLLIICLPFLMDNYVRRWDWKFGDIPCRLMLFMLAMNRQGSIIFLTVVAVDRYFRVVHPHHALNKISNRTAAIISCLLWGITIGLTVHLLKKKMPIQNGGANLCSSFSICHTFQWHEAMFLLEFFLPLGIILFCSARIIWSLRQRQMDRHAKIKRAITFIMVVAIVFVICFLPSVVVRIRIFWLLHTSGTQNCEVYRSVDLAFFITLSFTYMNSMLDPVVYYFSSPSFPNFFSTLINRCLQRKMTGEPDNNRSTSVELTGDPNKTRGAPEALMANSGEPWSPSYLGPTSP
Please provide measured EC50 for the entries that follow.
I'd appreciate it if you wrote the number followed by its unit.

- CCOC(=O)CSc1nc(=O)c2c(CCCCCl)cc(=O)oc2[nH]1 [3-2]: 43 µM

Please supply EC50 for each of the following items, keeping them in order.
1. Cc1cc(=O)oc2[nH]c(=S)[nH]c(=O)c12 [2-1]
2. NC(=O)CSc1nc(=O)c2c(CCCCCl)cc(=O)oc2[nH]1 [3-5]
3. CCCCc1cc(=O)oc2[nH]c(=O)[nH]c(=O)c12 [2-5]
4. CCCCc1cc(=O)oc2[nH]c(=S)[nH]c(=O)c12 [2-4]
5. O=c1cc(CCCCCl)c2c(=O)[nH]c(=S)[nH]c2o1 [2-6]

Result:
["7.1 µM", "62 µM", "0.051 µM", "0.55 µM", "0.35 µM"]

Please supply EC50 for each of the following items, keeping them in order.
1. O=c1[nH]c(=O)c2c(CCCCCl)cc(=O)oc2[nH]1 [2-7]
2. O=C(CSc1nc(=O)c2c(CCCCCl)cc(=O)oc2[nH]1)OCc1ccccc1 [3-3]
3. CCCc1cc(=O)oc2[nH]c(=S)[nH]c(=O)c12 [2-3]
4. CCCCc1cc(=O)oc2[nH]c(SCC(=O)OCC)nc(=O)c12 [3-1]

Result:
1. 0.054 µM
2. 17 µM
3. 0.87 µM
4. 75 µM

====

molecular target: FFA3/GPR41 (Homo sapiens, UniProt O14843); construct: host or cells: Flp-In-293; assay: forskolin-stimulated cAMP accumulation assay, Flp-In-293 cells stably expressing FFA3/GPR41; type: cell-based; conditions: Flp-In-293; mean ± SD; read-out: FFA3/GPR41 Emax, maximal inhibition of forskolin-stimulated cAMP (converted)
Binary classification by Emax, with 90% as an inclusive lower bound for class 1; all other cases are class 0.

Below, 5 compounds whose answers are already recorded.
- CCCCc1cc(=O)oc2[nH]c(=S)[nH]c(=O)c12 [2-4]: class 1
- CC(Sc1nc(=O)c2c(CCCCCl)cc(=O)oc2[nH]1)C(=O)c1ccc(OCc2ccccc2)cc1 (centres unmarked) [3-4]: class 1
- CC1=C(C(=O)Nc2ccc(Cl)cc2Cl)C(c2ccco2)C2=C(CCCC2=O)N1 (centres unmarked) [1-4]: class 0
- CC1=C(C(=O)Nc2ccc(Cl)cc2Cl)C(c2cccs2)C2=C(CCCC2=O)N1 (centres unmarked) [1-6]: class 0
- CC1=C(C(=O)Nc2ccccc2C)C(c2cccs2)C2=C(CCCC2=O)N1 (centres unmarked) [1-1]: class 1

Problem: Is it the case that CCCCc1cc(=O)oc2[nH]c(SCC(=O)OCC)nc(=O)c12 [3-1] has Emax reaching or exceeding 90%?
Result: class 1

Problem: Is it the case that CC1=C(C(=O)Nc2ccccc2C)C(c2ccco2)C2=C(CCCC2=O)N1 (centres unmarked) [1-2] has Emax reaching or exceeding 90%?
Result: class 1

Problem: Is it the case that O=C(CSc1nc(=O)c2c(CCCCCl)cc(=O)oc2[nH]1)Nc1ccccc1C(=O)O [3-7] has Emax reaching or exceeding 90%?
Result: class 0

Problem: Is it the case that CC1=C(C(=O)Nc2cc(Cl)ccc2Cl)C(c2ccco2)C2=C(CCCC2=O)N1 (centres unmarked) [1-3] has Emax reaching or exceeding 90%?
Result: class 1

====

Target: FFA3/GPR41 (Homo sapiens, UniProt O14843)
Construct: host or cells: Flp-In-293
Sequence (O14843 1-346): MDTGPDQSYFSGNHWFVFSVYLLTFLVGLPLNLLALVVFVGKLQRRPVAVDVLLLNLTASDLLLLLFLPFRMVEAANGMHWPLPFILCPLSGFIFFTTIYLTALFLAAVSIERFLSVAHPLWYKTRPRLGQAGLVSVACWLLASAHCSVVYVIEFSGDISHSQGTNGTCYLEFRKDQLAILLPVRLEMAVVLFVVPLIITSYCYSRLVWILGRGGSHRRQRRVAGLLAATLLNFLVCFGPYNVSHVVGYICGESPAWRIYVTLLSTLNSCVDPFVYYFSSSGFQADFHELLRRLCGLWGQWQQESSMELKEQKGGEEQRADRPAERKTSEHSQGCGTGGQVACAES
Assay: forskolin-stimulated cAMP accumulation assay, Flp-In-293 cells stably expressing FFA3/GPR41
Format: cell-based
Settings: Flp-In-293; 50 µM compound; NA = not active up to 50 µM
Binary classification by inhibition at 50 µM, with 40% as an inclusive lower bound for Satisfied; all other cases are Not satisfied.

Problem: Is it the case that CCCNCC1=C(C(=O)OCC)C(c2ccc(-c3ccccc3)cc2)C2=C(CC(C)(C)CC2=O)N1 (stereo not shown) has inhibition at 50 µM reaching or exceeding 40%?
Result: Satisfied

Problem: Is it the case that `CCCc1cc(=O)oc2[nH]c(=S)[nH]c(=O)c12` has inhibition at 50 µM reaching or exceeding 40%?
Result: Not satisfied

Problem: Is it the case that `CCCCc1cc(=O)oc2[nH]c(=O)[nH]c(=O)c12` has inhibition at 50 µM reaching or exceeding 40%?
Result: Not satisfied

Problem: Is it the case that CC1=C(C(=O)Nc2ccc(Cl)cc2)C(c2cccs2)C2=C(CCCC2=O)N1 (stereo not shown) has inhibition at 50 µM reaching or exceeding 40%?
Result: Satisfied

Problem: Is it the case that CC1=C(C(=O)N2CCOCC2)C(c2cccs2)C2=C(CCCC2=O)N1 (stereo not shown) has inhibition at 50 µM reaching or exceeding 40%?
Result: Not satisfied

Problem: Is it the case that `O=C(CSc1nc(=O)c2c(CCCCCl)cc(=O)oc2[nH]1)OCc1ccccc1` has inhibition at 50 µM reaching or exceeding 40%?
Result: Satisfied

Problem: Is it the case that `CC(=O)OCCN1C2=C(C(=O)CC(C)(C)C2)C(c2ccccc2)C2=C1CC(C)(C)CC2=O` has inhibition at 50 µM reaching or exceeding 40%?
Result: Not satisfied

Problem: Is it the case that CCOC(=O)C(OC(=O)C1=C(C)NC2=C(C(=O)CCC2)C1c1cccs1)c1ccccc1 (stereo not shown) has inhibition at 50 µM reaching or exceeding 40%?
Result: Satisfied

Problem: Is it the case that CCN1CC2=C(C1=O)C(c1ccc(-c3ccccc3)cc1)C1=C(CC(C)(C)CC1=O)N2 (stereo not shown) has inhibition at 50 µM reaching or exceeding 40%?
Result: Not satisfied

Problem: Is it the case that `NC(=O)CSc1nc(=O)c2c(CCCCCl)cc(=O)oc2[nH]1` has inhibition at 50 µM reaching or exceeding 40%?
Result: Not satisfied

====

Target: FFA2/GPR43 (Homo sapiens, UniProt O15552)
Construct: host or cells: Flp-In-293
Sequence (O15552 1-330): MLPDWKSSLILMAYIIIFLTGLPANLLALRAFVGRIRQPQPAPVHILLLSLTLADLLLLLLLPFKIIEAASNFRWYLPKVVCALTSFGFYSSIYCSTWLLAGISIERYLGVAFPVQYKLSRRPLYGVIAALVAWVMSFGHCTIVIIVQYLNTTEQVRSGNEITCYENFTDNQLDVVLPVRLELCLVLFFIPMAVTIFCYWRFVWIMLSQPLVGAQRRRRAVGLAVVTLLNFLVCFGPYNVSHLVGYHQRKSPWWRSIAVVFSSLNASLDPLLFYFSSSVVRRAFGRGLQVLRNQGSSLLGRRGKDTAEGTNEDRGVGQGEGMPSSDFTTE
Assay: forskolin-stimulated cAMP accumulation assay, Flp-In-293 cells stably expressing FFA2/GPR43
Assay type: cell-based
Details: cAMP assay
readout label: activity towards FFA2/GPR43 (in words)

* CC1=C(C(=O)Nc2ccccc2C)C(c2cccs2)C2=C(CCCC2=O)N1 (centres unmarked) [1-1] | lacked activity
* CC1=C(C(=O)N2CCOCC2)C(c2cccs2)C2=C(CCCC2=O)N1 (centres unmarked) [1-8] | lacked activity

All values here come from paper PMC8537386.
